- System: ETV4 FL K260ac (Homo sapiens, UniProt P43268 1-484)
- Sequence (P43268 whole entry): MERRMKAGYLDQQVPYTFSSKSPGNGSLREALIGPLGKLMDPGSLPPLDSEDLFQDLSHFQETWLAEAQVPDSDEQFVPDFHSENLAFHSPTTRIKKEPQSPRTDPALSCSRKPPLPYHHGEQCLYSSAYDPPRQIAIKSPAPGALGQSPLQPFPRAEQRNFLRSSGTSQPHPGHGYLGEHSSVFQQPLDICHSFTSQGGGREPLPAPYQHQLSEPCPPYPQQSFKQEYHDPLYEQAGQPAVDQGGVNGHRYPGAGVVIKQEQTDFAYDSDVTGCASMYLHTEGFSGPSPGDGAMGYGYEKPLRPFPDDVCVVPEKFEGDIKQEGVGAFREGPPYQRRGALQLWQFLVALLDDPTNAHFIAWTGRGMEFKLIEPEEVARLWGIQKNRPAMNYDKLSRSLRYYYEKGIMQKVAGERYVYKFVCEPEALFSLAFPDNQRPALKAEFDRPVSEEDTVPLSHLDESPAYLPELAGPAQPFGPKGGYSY
- Experiment description: EMSA
Quantity kind: pKd
The meaning of pKd here: minus log10 of the concentration in molar units.

Indicate the recorded pKd value for this binder: 27-mer consensus ETS duplex (dsDNA) DNA 1: TCGACGGCCAAGCCGGAAGTGAGTGCC DNA 2: TCGAGGCACTCACTTCCGGCTTGGCCG 9.29

Where do the numbers come from? From paper PMC5389675.
